Target: T1, recombinant human AXL extracellular domain, C-terminally His8-tagged (rhAXL-ECD) (human, UniProt P30530 26-451)
T1 construct: Made in CHO cells; also called (rh)AXL-ECD His8; human AXL ECD
T1 sequence: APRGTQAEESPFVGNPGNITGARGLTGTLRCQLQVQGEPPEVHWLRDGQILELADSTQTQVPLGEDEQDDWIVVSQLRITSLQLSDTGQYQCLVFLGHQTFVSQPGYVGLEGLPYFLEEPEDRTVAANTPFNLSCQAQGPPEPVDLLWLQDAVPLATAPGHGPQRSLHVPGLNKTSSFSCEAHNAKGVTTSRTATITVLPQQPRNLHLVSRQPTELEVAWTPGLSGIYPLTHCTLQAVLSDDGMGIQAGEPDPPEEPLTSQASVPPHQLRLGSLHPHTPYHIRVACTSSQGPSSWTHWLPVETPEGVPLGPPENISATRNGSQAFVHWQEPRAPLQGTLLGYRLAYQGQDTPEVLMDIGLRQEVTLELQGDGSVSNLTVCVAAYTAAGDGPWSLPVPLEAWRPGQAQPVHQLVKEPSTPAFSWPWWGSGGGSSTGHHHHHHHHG
Assay: SPR Biacore T200, mAb captured on anti-Fc, AXL ECD flowed, single-cycle kinetics
MEASURED_PARAMETER: pKd
# pKd: negative log10 of molar concentration; output just the value

# annotated cases, reported pKd shown
BINDER	NUMERIC_RESULT
hFC-F107-8D12 (antibody, human IgG1, kappa, V domains shown, Chimeric mAb, human IgG1 / human kappa constant regions; also called mAb F107-8D12; chimeric F107-8D12) VH: QVQLQQPGAELVKPGASVQLSCKASGYTFISFWINWVKQRPGQGLEWMGNIFPGSSSTNYNEKFKSKATLTVDKSSSTAYMQLSSLTSEDSAVYFCARDYYGGSPDYWGQGTTLTVSS VL: DIVMSQSPSSLAVSAGERVTMSCKSSQSLLNTRTRKNYLAWYQQKPGQSPKLLIYWASTRESGVPDRFTGSGSGTDFTLTISSVQAEDLAVYYCKQSYNLWTFGGGTKLEIKR	8.30
hFC-F111-3C8 (antibody, human IgG1, kappa, V domains shown, Chimeric mAb, human IgG1 / human kappa constant regions; also called mAb F111-3C8; chimeric F111-3C8) VH: QVQLQQPGAELGKPGTSVKLSCKASGYTFTSYWMHWVKRVPGQGLEWIGNINPNSTSADYNEKFKRKATLTVDKSSSTAYMQLSTLTSEDSAVYYCTRPLMGPYWYFDVWGTGTTVTVSS VL: QIVLTQSPAIMSASPGEKVTISCSASSSVSYMYWYQQKPGSSPKPWIYRTSNLASGVPARFSGSGSGTSYSLTISSMEAEDAATYYCQQYHNYPPTFGGGTKLEIKR	7.92
hFC-F111-5E9 (antibody, human IgG1, kappa, V domains shown, Chimeric mAb, human IgG1 / human kappa constant regions; also called mAb F111-5E9; hIgG-F111-5E9) VH: QIQLVQSGPELKKPGETVKISCKASGYTFTKYGMNWVKQAPGKGLKWMGWINTYTGEPTYADDFKGRFAFSLETSASTAYLQINNLTTEDMVTYFCAKGGYYSNPIYPMDYWGQGTSVTVSS VL: DIQMTQTTSSLSASLGDRVTISCRASQDINNYLNWYQQKPDGTVKLLIYYISRLHSGVPSRFSGSGSGTDYSLTISNLELEDVATYFCQQGNTLPFTFGSGTKLEIKR	8.70

# get_value(readout='pKd', item= hFC-F107-10G1 (antibody, human IgG1, kappa, V domains shown, Chimeric mAb, human IgG1 / human kappa constant regions; also called mAb F107-10G1) VH: EVNLVESGGGVVKPGASLKLSCEASGFTFSNYGMSWVRQTSDKRLEWVASISGGGGRTYYLDNVKGRFIISRENAKNTLYLQMSSLKSEDTALFYCARGARASYFAMDYWGQGSSVTVSS VL: VIVMTQSHKFMSTSVGDRVSITCKASQDVTTAVAWYQQKPGQSPKLLIYWASTRHTGVPDRFTGSGSGTDYSLTISNVQTEDLAFYYCQQHFTTPLTFGAGTKLELKR )
9.30
